Ref: ChEMBL document CHEMBL1152491

system: Pseudomonas aeruginosa; experiment: Inhibition of Pseudomonas aeruginosa PAO1 quorum sensing assessed as inhibition of pycocyanin production at 0.1 mM after 18 hrs; type: functional, organism-based
Active and inactive are the calls of the source. The calls are words filed in the database; no cut-off is given here.
Reply using exactly one outcome from 1.0 (active), 0.0 (inactive)

Request: Write down the call the test reported for this molecule. Item: C=C1CC[C@@H]2[C@](C)(CO)[C@H](O)CC[C@@]2(C)[C@@H]1CC(C1=CCOC1=O)S(=O)(=O)[O-].[Na+] (stereo not given in full)
Response: 0.0

Request: GET /call?item= C=C1CC[C@@H]2[C@](C)(CO)[C@H](O)CC[C@@]2(C)[C@@H]1C/C=C1/C(=O)OC[C@H]1OC(=O)CNC(=O)OC(C)(C)C returns the recorded outcome of this test.
Response: 1.0

Request: Write down the call the test reported for this molecule. Item: C=C1CC[C@@H]2[C@](C)(CO)[C@H](O)CC[C@@]2(C)[C@@H]1C/C=C1/C(=O)OC[C@H]1OC(=O)CCCCC1CCSS1 (stereo not given in full)
Response: 1.0

Request: Hi team, can someone confirm the assay call for C=C1CC[C@@H]2[C@](C)(CO)[C@H](O)CC[C@@]2(C)[C@@H]1C/C=C1/C(=O)OC[C@H]1OC(=O)/C=C/c1ccc([N+](=O)[O-])cc1 ?
Response: 1.0

Request: Tell me the recorded outcome of this test for C=C1CC[C@@H]2[C@](C)(CO)[C@H](O)CC[C@@]2(C)[C@@H]1C/C=C1/C(=O)OC[C@H]1OC(=O)CN.Cl .
Response: 1.0

* * *

system: Pseudomonas aeruginosa PAO1; assay: Inhibition of Pseudomonas aeruginosa PAO1 quorum sensing assessed as suppression of protease production at 1 mM after 18 hrs by azocasein-based colorimetric method
Calls of active or inactive are those of the source. No cut-off for these calls is given here.
Reported endpoint: Activity

Solved entries (count: 4):
C=C1CC[C@@H]2[C@](C)(CO)[C@H](O)CC[C@@]2(C)[C@@H]1C/C=C1/C(=O)OC[C@H]1OC(=O)CCCCC1CCSS1 (stereo not given in full) : Active
C=C1CC[C@@H]2[C@](C)(CO)[C@H](O)CC[C@@]2(C)[C@@H]1C/C=C1/C(=O)OC[C@H]1OC(=O)/C=C/c1ccc([N+](=O)[O-])cc1 : Active
C=C1CC[C@@H]2[C@](C)(CO)[C@H](O)CC[C@@]2(C)[C@@H]1C/C=C1/C(=O)OC[C@H]1OC(=O)CNC(=O)OC(C)(C)C : Active
C=C1CC[C@@H]2[C@](C)(CO)[C@H](O)CC[C@@]2(C)[C@@H]1C/C=C1/C(=O)OC[C@H]1O [ANDROGRAPHOLIDE] : Active

Quick note, Activity for C=C1CC[C@@H]2[C@](C)(CO)[C@H](O)CC[C@@]2(C)[C@@H]1C/C=C1/C(=O)OC[C@H]1OC(=O)CN.Cl landed at Active

* * *

tested on: Staphylococcus aureus; assay: Antibacterial activity against Staphylococcus aureus at 0.05 mg/disk after 25 hrs; type: functional
Reported endpoint: diameter of the inhibition zone (DIZ) (mm)
Provide the reading as a plain figure in mm.

Value of measured diameter of the inhibition zone (DIZ) for the entry C=C1CC[C@@H]2[C@](C)(CO)[C@H](O)CC[C@@]2(C)[C@@H]1C/C=C1/C(=O)OC[C@H]1OC(=O)/C=C/c1ccc([N+](=O)[O-])cc1 : 8.3

diameter of the inhibition zone (DIZ) in this record for C=C1CC[C@@H]2[C@](C)(CO)[C@H](O)CC[C@@]2(C)[C@@H]1C/C=C1/C(=O)OC[C@H]1OC(=O)CN.Cl : 9.3

The measured diameter of the inhibition zone (DIZ) associated with C=C1CC[C@@H]2[C@](C)(CO)[C@H](O)CC[C@@]2(C)[C@@H]1C/C=C1/C(=O)OC[C@H]1OC(=O)CNC(=O)OC(C)(C)C reads 10.2

The molecule listed as C=C1CC[C@@H]2[C@](C)(CO)[C@H](O)CC[C@@]2(C)[C@@H]1C/C=C1/C(=O)OC[C@H]1OC(=O)CCCCC1CCSS1 (stereo partly specified) shows diameter of the inhibition zone (DIZ) equal to 4.9
